Test: Metabolic stability test: liver microsomal stability assay
Assay type: in vitro ADME, mouse
Details: mouse liver microsomes 0.5 mg protein/mL, compound 1 µM, absence of NADPH
Starred links: 1 amine or outer side, 2 acyl side, 3 side chain; linkers in the order of their positions; H or OH if unused. Positions of bridges follow the written chain, without caps; N, C: chain ends. Non-standard residues stand in square brackets, D forms with d. Residues, ends and D or L forms follow the SMILES beside them. *: point of attachment. NMeF = CN[C@@H](Cc1ccccc1)C(=O)O; NMeI = CC[C@H](C)[C@H](NC)C(=O)O; NMeT = CN[C@H](C(=O)O)[C@@H](C)O; hPhe = N[C@@H](CCc1ccccc1)C(=O)O; NMeβAla = CN(CCC(=O)[*:2])[*:1]; NMeD = CN[C@@H](CC(=O)O)C(=O)O; NMeL = CN[C@@H](CC(C)C)C(=O)O; NMeAbu = CC[C@H](NC)C(=O)O; NMeA = CN[C@@H](C)C(=O)O; Piperidide = C1CCN(*)CC1; NBuGly = CCCCNCC(=O)O; βAla = NCCC(=O)O; tBu = CC(C)(C)*
Catalogue of compounds with associated Mouse Hepatic Microsome CLh,int NADPH(-)

>>> recorded_result("CCCCN1CC(=O)N(C)[C@@H](Cc2ccccc2)C(=O)N[C@@H](COC(C)(C)C)C(=O)N(C)[C@@H](CC(C)C)C(=O)NCCC(=O)N(C)[C@@H](C)C(=O)N(C)[C@@H]([C@@H](C)CC)C(=O)N[C@@H](CC(C)C)C(=O)N(C)[C@H](C(=O)N2CCCCC2)CC(=O)N(C)CCC(=O)N(C)[C@@H](CC(C)C)C(=O)N[C@@H]([C@@H](C)CC)C(=O)N(C)[C@@H](Cc2ccccc2)C1=O [pd154] ([NMeβAla][NMeL]I[NMeF][NBuGly][NMeF]S(tBu)[NMeL][βAla][NMeA][NMeI]L[NMeD]-Piperidide; lactam N-13)")
"34.3 µL/min/mg Protein"

Now let's try a different one.
Reported Mouse Hepatic Microsome CLh,int NADPH(-) ( CC[C@H](C)[C@H]1C(=O)N(C)[C@@H]([C@@H](C)O)C(=O)N(C)[C@@H](CC)C(=O)N(C)[C@@H](CC(C)C)C(=O)N2CCC[C@H]2C(=O)N[C@H](C(=O)N2CCCCC2)CC(=O)N(C)[C@@H](C)C(=O)N[C@@H](CC(C)C)C(=O)N(C)[C@@H](CC(C)C)C(=O)N(C)[C@@H](C)C(=O)N2CCC[C@H]2C(=O)N[C@@H](CCc2ccccc2)C(=O)N(C)[C@@H](CC(C)C)C(=O)N1C [pd125] ([NMeA]L[NMeL][NMeA]P[hPhe][NMeL][NMeI][NMeT][NMeAbu][NMeL]PD-Piperidide; lactam N-13) ) = 18.1 µL/min/mg Protein

###

List of microsomal CLint at 1 µM values.
Assay: Metabolic stability test: liver microsomal stability assay
Format: in vitro ADME, mouse
Conditions: male, pH 7.4; mouse liver microsomes 0.5 mg protein/mL, compound 1 µM, presence of NADPH; read-out: Mouse Hepatic Microsome CLh,int NADPH(+)
Starred links: 1 amine or outer side, 2 acyl side, 3 side chain; linkers in the order of their positions; H or OH if unused. Positions of bridges follow the written chain, without caps; N, C: chain ends. Non-standard residues stand in square brackets, D forms with d. Residues, ends and D or L forms follow the SMILES beside them. *: point of attachment. NMedβ3hAla = C[C@H](CC(=O)[*:2])N(C)[*:1]; NMeF = CN[C@@H](Cc1ccccc1)C(=O)O; NMeI = CC[C@H](C)[C@H](NC)C(=O)O; hPhe = N[C@@H](CCc1ccccc1)C(=O)O; NMeD = CN[C@@H](CC(=O)O)C(=O)O; NMeL = CN[C@@H](CC(C)C)C(=O)O; NMeV = CN[C@H](C(=O)O)C(C)C; NMeA = CN[C@@H](C)C(=O)O; Piperidide = C1CCN(*)CC1; Sar = CNCC(=O)O
Just the number please, in µL/min/mg, no unit attached.

>>> recorded_result("CC[C@H](C)[C@@H]1NC(=O)[C@H](CC(C)C)N(C)C(=O)[C@H](C)N(C)C(=O)[C@H](C)NC(=O)C[C@@H](C)N(C)C(=O)[C@H](CC(C)C)N(C)C(=O)[C@H](C)N(C)C(=O)CN(C)C(=O)[C@H]([C@@H](C)O)NC(=O)[C@H](Cc2ccccc2)N(C)C(=O)[C@H](CC(C)C)N(C)C(=O)[C@H](C(C)C)NC(=O)[C@H]([C@@H](C)CC)N(C)C1=O [pd148] (cyclo(A[NMeA][NMeL]I[NMeI]V[NMeL][NMeF]T[Sar][NMeA][NMeL][NMedβ3hAla]))")
25.2

Please examine the following record next.
Lab note: CC[C@H](C)[C@@H]1NC(=O)CN(C)C(=O)C[C@@H](C(=O)N2CCCCC2)N(C)C(=O)[C@H](C(C)C)NC(=O)[C@H](Cc2ccccc2)N(C)C(=O)[C@H](CC(C)C)N(C)C(=O)[C@H]([C@@H](C)O)NC(=O)[C@H](CC(C)C)N(C)C(=O)[C@H](CC(C)C)NC(=O)[C@H](C(C)C)N(C)C(=O)[C@H](C)N(C)C(=O)[C@H](CC(C)C)N(C)C(=O)[C@H](CCc2ccccc2)NC(=O)[C@H](CC(C)C)N(C)C1=O [pd092] ([Sar]I[NMeL][hPhe][NMeL][NMeA][NMeV]L[NMeL]T[NMeL][NMeF]V[NMeD]-Piperidide; lactam N-14) gave microsomal CLint at 1 µM of 22

###

Experiment: Metabolic stability test: liver microsomal stability assay
Assay type: in vitro ADME, mouse
Settings: male, pH 7.4; mouse liver microsomes 0.5 mg protein/mL, compound 1 µM, presence of NADPH; read-out: Mouse Hepatic Microsome CLh,int NADPH(+)
Method: Under the presence and absence of NADPH, a microsome solution prepared to a concentration of 0.5 mg protein/mL using 100 mM phosphate buffer (pH 7.4) with mouse liver microsomes (male, Corning Incorporated, USA) and the compound at a concentration of 1 µM were subjected to a metabolic reaction for 22 minutes, 44 minutes, or 66 minutes. […]
Positions of bridges follow the written chain, without caps; N, C: chain ends. Non-standard residues stand in square brackets, D forms with d. Residues, ends and D or L forms follow the SMILES beside them. *: point of attachment. NMeF = CN[C@@H](Cc1ccccc1)C(=O)O; NMeT = CN[C@H](C(=O)O)[C@@H](C)O; hPhe = N[C@@H](CCc1ccccc1)C(=O)O; NMeD = CN[C@@H](CC(=O)O)C(=O)O; NMeL = CN[C@@H](CC(C)C)C(=O)O; NMeV = CN[C@H](C(=O)O)C(C)C; NMeAbu = CC[C@H](NC)C(=O)O; NMeA = CN[C@@H](C)C(=O)O; Piperidide = C1CCN(*)CC1; Abu = CC[C@H](N)C(=O)O; Sar = CNCC(=O)O; tBu = CC(C)(C)*
readout: microsomal CLint at 1 µM (µL/min/mg)
Form entry: value (µL/min/mg) — number only.

Example entries and their recorded answers appear below.
>>> recorded_result("CC[C@@H]1NC(=O)[C@H]([C@@H](C)O)N(C)C(=O)[C@H](CC(C)C)N(C)C(=O)[C@H]([C@@H](C)CC)NC(=O)[C@H](Cc2ccccc2)N(C)C(=O)CN(C)C(=O)C[C@@H](C(=O)N2CCCCC2)NC(=O)[C@H](C(C)C)N(C)C(=O)[C@H](CC)NC(=O)[C@H](COC(C)(C)C)NC(=O)[C@H](C)N(C)C(=O)[C@H](CC)NC(=O)[C@H](CC(C)C)N(C)C(=O)[C@H](CCc2ccccc2)NC1=O [pd028] ([Sar][NMeF]I[NMeL][NMeT][Abu][hPhe][NMeL][Abu][NMeA]S(tBu)[Abu][NMeV]D-Piperidide; lactam N-14)")
37.2
>>> recorded_result("CC[C@H](C)[C@@H]1NC(=O)[C@H](C)N(C)C(=O)C[C@@H](C(=O)N2CCCCC2)NC(=O)[C@H](CC)N(C)C(=O)[C@H](COC(C)(C)C)NC(=O)[C@H](CC(C)C)N(C)C(=O)[C@H](C)N(C)C(=O)[C@H](CC(C)C)N(C)C(=O)[C@H](Cc2ccccc2)N(C)C(=O)CN(C)C(=O)[C@H]([C@@H](C)O)NC(=O)[C@H](CC(C)C)N(C)C(=O)[C@H](C(C)C)N(C)C(=O)[C@H](Cc2ccccc2)N(C)C1=O [pd004] ([NMeA]I[NMeF][NMeV][NMeL]T[Sar][NMeF][NMeL][NMeA][NMeL]S(tBu)[NMeAbu]D-Piperidide; lactam N-14)")
36.2
>>> recorded_result("CC[C@H](C)[C@@H]1NC(=O)[C@H](CC(C)C)N(C)C(=O)CN(C)C(=O)C[C@@H](C(=O)N2CCCCC2)NC(=O)[C@H](C)N(C)C(=O)CNC(=O)[C@H](C(C)C)N(C)C(=O)[C@H](C)N(C)C(=O)[C@H](Cc2ccccc2)N(C)C(=O)[C@H](C(C)C)NC(=O)[C@H](CC(C)C)NC(=O)[C@H](Cc2ccccc2)N(C)C(=O)[C@H]([C@@H](C)O)NC(=O)[C@H](CC(C)C)N(C)C1=O [pd039] ([Sar][NMeL]I[NMeL]T[NMeF]LV[NMeF][NMeA][NMeV]G[NMeA]D-Piperidide; lactam N-14)")
21.4

As a next step, examine the molecule that follows.
Recorded microsomal CLint at 1 µM (molecule CC[C@H](C)[C@@H]1NC(=O)CN(C)C(=O)C[C@@H](C(=O)N2CCCCC2)N(C)C(=O)[C@H](Cc2ccccc2)N(C)C(=O)[C@H](CC(C)C)N(C)C(=O)[C@H]([C@@H](C)O)NC(=O)[C@H](CC(C)C)N(C)C(=O)[C@H](CC(C)C)NC(=O)[C@H](C(C)C)N(C)C(=O)[C@H](C)N(C)C(=O)[C@H](CC(C)C)N(C)C(=O)[C@H](CCc2ccccc2)NC(=O)[C@H](CC(C)C)N(C)C1=O [pd165] ([Sar]I[NMeL][hPhe][NMeL][NMeA][NMeV]L[NMeL]T[NMeL][NMeF][NMeD]-Piperidide; lactam N-13) ): 40.9
